Reference source for all entries: PubChem BioAssay (NCATS)

Test system: PC26
experimental-details: qHTS profiling for inhibitors of Plasmodium falciparum proliferation (AID 504749); note: nearly all actives have a fitted effect of over 60% in size
condition-info: P. falciparum in erythrocytes, SYBR Green DNA, 72 h; series mostly up to 28.7 µM
Results filed as inconclusive are left out. Calls of active or inactive are those of the source. Calls come from the whole dose curve; as a rule, active = well fitted inhibition curve with a large enough effect; inconclusive = small, poorly fitted or top-dose-only effect; inactive = flat fitted curve, though single readings scatter.
Outcomes: T (active), F (inactive)

>>> category("O=C1NCCN1c1ncc([N+](=O)[O-])s1")
"F"
>>> category("C[C@H](CCC(=O)O)[C@H]1CC[C@H]2[C@@H]3CC[C@@H]4C[C@H](O)CC[C@]4(C)[C@H]3C[C@H](O)[C@]12C")
"F"
>>> category("CC1(C)S[C@@H]2[C@H](NC(=O)C3(N)CCCCC3)C(=O)N2[C@H]1C(=O)O")
"F"
>>> category("CC1=CC(=O)NS(=O)(=O)O1")
"F"
>>> category("NCCN")
"F"
>>> category("O=C(O)Cc1cc(I)c(Oc2ccc(O)c(I)c2)c(I)c1")
"F"
>>> category("CN=C1C=CC(=C(c2ccc(N(C)C)cc2)c2ccc(N(C)C)cc2)C=C1")
"T"

----------
Tested on: CP252
experimental-details: qHTS profiling for inhibitors of Plasmodium falciparum proliferation (AID 504749); note: nearly all actives have a fitted effect of over 60% in size
condition-info: P. falciparum in erythrocytes, SYBR Green DNA, 72 h; series mostly up to 28.7 µM
Inconclusive results are not listed. The source made the active and inactive calls. The call rests on the fitted dose curve; in most records, active means well fitted inhibition curve with a large enough effect; inconclusive means small, poorly fitted or top-dose-only effect; inactive means flat fitted curve, though single readings scatter.
Outcomes: active, inactive

>>> category("c1ccc2c(c1)Sc1ccccc1N2CCN1CCCC1")
"active"
>>> category("O=C1CCC(=O)N1CO")
"inactive"
>>> category("OCC1(CO)COC(C(Cl)(Cl)Cl)OC1")
"inactive"
>>> category("Cc1cccc(Nc2ncccc2C(=O)O)c1C")
"inactive"
>>> category("CC/C(=C(/CC)c1ccc(OP(=O)(O)O)cc1)c1ccc(OP(=O)(O)O)cc1")
"inactive"
>>> category("CCN(CC)CCOc1ccc2nc(N(C)C)sc2c1")
"inactive"
>>> category("CC1CC(OC(=O)C(O)c2ccccc2)CC(C)(C)C1 (stereo unspecified)")
"inactive"
>>> category("NCC(O)CC(=O)O (stereo unspecified)")
"inactive"
>>> category("C[C@H](N)C(=O)N[C@@H](C)P(=O)(O)O")
"inactive"
>>> category("CCC(C)[C@@H](N)C(=O)O (stereo partly specified)")
"inactive"
>>> category("Cc1ccc(C(C)(C)c2ccc(C)cc2)cc1")
"inactive"
>>> category("CCCCCCCCCCCCCC(=O)OCC(COP(=O)([O-])OCC[N+](C)(C)C)OC(=O)CCCCCCCCCCCCC (stereo unspecified)")
"inactive"
>>> category("Cc1cc2nc3c(=O)[nH]c(=O)nc-3n(C[C@H](O)[C@H](O)[C@H](O)COP(=O)(O)OP(=O)(O)OC[C@H]3O[C@@H](n4cnc5c(N)ncnc54)[C@H](O)[C@@H]3O)c2cc1C")
"inactive"
>>> category("CC(C)CCC[C@@H](C)[C@H]1CC[C@H]2[C@@H]3CC[C@@H]4C[C@H](O)CC[C@]4(C)[C@H]3CC[C@]12C")
"inactive"
>>> category("Cc1ncc(C[n+]2csc(CCOP(=O)(O)O)c2C)c(N)n1")
"inactive"
>>> category("CC12CCC(C[N+](C)(CCC[N+](C)(C)C)C1)C2(C)C (stereo unspecified)")
"inactive"
